Cited source for all entries: patent US7270966B2

# MEASURED ON: human P2Y4 receptor (Homo sapiens)
# Construct: expressed in transfected cells; host or cells: 1321N1 human astrocytoma cells, G418-selected clone, pcDNA3-P2Y4
# ASSAY METHOD TEXT: InsP3 accumulation in 1321N1 cells expressing the human P2Y4 receptor
# Assay type: cell-based
# CONDITION SUMMARY: 20 min, no PPADS; read-out: EC50 value for UTP in the absence of PPADS
MEASUREMENT KIND: pEC50
API: returns pEC50 as number; meaning -log10 of concentration in mol/L.

// assay human P2Y4 receptor (Homo sapiens), entry O=c1ccn([C@@H]2O[C@H](COP(=O)(O)OP(=O)(O)OP(=O)(O)O)[C@@H](O)[C@H]2O)c(=O)[nH]1 [UTP, uridine triphosphate] , pEC50 value = 5.48

====

# MEASURED ON: human P2Y4 receptor (Homo sapiens)
# Construct: expressed in transfected cells; host or cells: 1321N1 human astrocytoma cells, G418-selected clone, pcDNA3-P2Y4
# ASSAY METHOD TEXT: InsP3 accumulation in 1321N1 cells expressing the human P2Y4 receptor
# Assay type: cell-based
# CONDITION SUMMARY: 20 min incubation, 10 mM LiCl; read-out: EC50 InsP3 accumulation, full concentration-action curves
pEC50: −log10 of the molar value.
MEASUREMENT KIND: pEC50

O=c1ccn([C@@H]2O[C@H](COP(=O)(O)OP(=O)(O)O)[C@@H](O)[C@H]2O)c(=O)[nH]1    4.71
O=c1ccn([C@@H]2O[C@H](COP(=O)(O)OP(=O)(O)OP(=O)(O)O)[C@@H](O)[C@H]2O)c(=O)[nH]1 [UTP, uridine triphosphate]    5.60
O=c1[nH]cnc2c1ncn2[C@@H]1O[C@H](COP(=O)(O)OP(=O)(O)OP(=O)(O)O)[C@@H](O)[C@H]1O    4.48
O=c1ccn([C@H]2C[C@H](O)[C@@H](COP(=O)(O)OP(=O)(O)OP(=O)(O)O)O2)c(=O)[nH]1    4.70
O=c1[nH]c(=O)n([C@@H]2O[C@H](COP(=O)(O)OP(=O)(O)OP(=O)(O)O)[C@@H](O)[C@H]2O)cc1Br    4.57

====

# MEASURED ON: human P2Y4 receptor (Homo sapiens, UniProt P51582)
# Construct: expressed in transfected cells; host or cells: 1321N1 human astrocytoma cells, G418-selected clone, pcDNA3-P2Y4
# Sequence (P51582 whole entry): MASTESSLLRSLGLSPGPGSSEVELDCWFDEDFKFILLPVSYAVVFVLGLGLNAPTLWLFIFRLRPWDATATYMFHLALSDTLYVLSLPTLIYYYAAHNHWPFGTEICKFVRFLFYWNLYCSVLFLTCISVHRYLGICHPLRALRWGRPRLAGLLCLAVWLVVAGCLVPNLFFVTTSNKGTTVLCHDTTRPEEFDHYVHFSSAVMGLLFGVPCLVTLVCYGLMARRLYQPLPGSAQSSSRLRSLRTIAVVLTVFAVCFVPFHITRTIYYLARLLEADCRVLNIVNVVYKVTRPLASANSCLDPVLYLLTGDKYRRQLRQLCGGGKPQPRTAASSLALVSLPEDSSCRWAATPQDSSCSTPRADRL
# ASSAY METHOD TEXT: InsP3 accumulation in 1321N1 cells expressing the human P2Y4 receptor
# Type: cell-based
# CONDITION SUMMARY: 30 s incubation, 100 μM
MEASUREMENT KIND: agonist effect on InsP3 at 30 s

O=c1[nH]c(=O)n([C@@H]2O[C@H](COP(=O)(O)OP(=O)(O)OP(=O)(O)O)[C@@H](O)[C@H]2O)cc1Br    barely or not active
O=c1ccn([C@@H]2O[C@H](COP(=O)(O)OP(=O)(O)O)[C@@H](O)[C@H]2O)c(=O)[nH]1    barely or not active
O=c1[nH]cnc2c1ncn2[C@@H]1O[C@H](COP(=O)(O)OP(=O)(O)OP(=O)(O)O)[C@@H](O)[C@H]1O    barely or not active
O=c1ccn([C@H]2C[C@H](O)[C@@H](COP(=O)(O)OP(=O)(O)OP(=O)(O)O)O2)c(=O)[nH]1    barely or not active

====

EC50 for assorted compounds
# MEASURED ON: human P2Y4 receptor (Homo sapiens, UniProt P51582)
# Construct: expressed in transfected cells; host or cells: 1321N1 human astrocytoma cells, G418-selected clone, pcDNA3-P2Y4
# ASSAY METHOD TEXT: InsP3 accumulation in 1321N1 cells expressing the human P2Y4 receptor
# Assay type: cell-based
# CONDITION SUMMARY: clone 21, 20 min incubation, 10 mM LiCl; read-out: EC50 InsP3 production
Report only the number, with the unit nM understood.

O=c1ccn([C@@H]2O[C@H](COP(=O)(O)OP(=O)(O)OP(=O)(O)O)[C@@H](O)[C@H]2O)c(=O)[nH]1 [UTP, uridine triphosphate]    300

compound O=c1ccn([C@@H]2O[C@H](COP(=O)(O)OP(=O)(O)O)[C@@H](O)[C@H]2O)c(=O)[nH]1 [UDP] , EC50 observed: 3200

====

# MEASURED ON: UniProt P51582
# ASSAY METHOD TEXT: InsP3 accumulation in 1321N1 cells expressing the human P2Y4 receptor
# CONDITION SUMMARY: data not shown; read-out: IC50 for inhibition of the UTP response
MEASUREMENT KIND: IC50

Just so you know, measured IC50 for Cc1nc(N=Nc2ccc(S(=O)(=O)O)cc2S(=O)(=O)O)c(COP(=O)(O)O)c(C=O)c1O came out at ~15 µM

====

# MEASURED ON: human P2Y4 receptor (Homo sapiens)
# Construct: expressed in transfected cells; host or cells: 1321N1 human astrocytoma cells, G418-selected clone, pcDNA3-P2Y4
# ASSAY METHOD TEXT: InsP3 accumulation in 1321N1 cells expressing the human P2Y4 receptor
# Type: cell-based
# CONDITION SUMMARY: 20 min, 100 μM PPADS; read-out: EC50 value for UTP in the presence of PPADS
MEASUREMENT KIND: pEC50
# reply with the number alone; pEC50 is -log10 of concentration in mol/L

Measured pEC50, O=c1ccn([C@@H]2O[C@H](COP(=O)(O)OP(=O)(O)OP(=O)(O)O)[C@@H](O)[C@H]2O)c(=O)[nH]1 [UTP, uridine triphosphate] : 4.91
